Molecular target: T1, Human C5 (human, UniProt P01031 19-1676)
T1 construct: The natural protein has a beta and an alpha chain; also called complement factor 5; complement component 5
Assay: SPR, mAb captured by anti-hFc, 25C
# key: entry, value: log10(Kd)
The figures below represent log10 of Kd, where Kd is stated in pM.

Recorded results for 3 binders are shown here.
>>> endpoint_value("H4H12171P (antibody, human IgG4, V domains shown) VH: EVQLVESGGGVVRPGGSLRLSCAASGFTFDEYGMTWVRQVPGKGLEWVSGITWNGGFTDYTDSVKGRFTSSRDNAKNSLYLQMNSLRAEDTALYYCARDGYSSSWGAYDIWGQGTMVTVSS VL: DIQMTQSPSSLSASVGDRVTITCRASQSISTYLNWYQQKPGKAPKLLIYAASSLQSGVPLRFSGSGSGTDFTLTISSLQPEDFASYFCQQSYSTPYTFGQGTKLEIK")
2.74
>>> endpoint_value("H4H12167P (antibody, human IgG4, V domains shown) VH: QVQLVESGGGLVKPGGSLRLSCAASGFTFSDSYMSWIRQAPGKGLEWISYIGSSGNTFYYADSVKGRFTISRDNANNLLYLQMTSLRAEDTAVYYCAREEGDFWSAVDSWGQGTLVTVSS VL: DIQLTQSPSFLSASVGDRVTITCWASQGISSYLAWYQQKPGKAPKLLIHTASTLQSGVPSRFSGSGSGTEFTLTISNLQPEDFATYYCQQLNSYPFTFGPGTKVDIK")
2.08
>>> endpoint_value("H4H12169P (antibody, human IgG4, V domains shown) VH: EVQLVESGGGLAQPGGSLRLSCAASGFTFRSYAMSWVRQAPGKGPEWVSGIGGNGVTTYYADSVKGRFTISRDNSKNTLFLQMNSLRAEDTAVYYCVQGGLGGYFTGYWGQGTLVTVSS VL: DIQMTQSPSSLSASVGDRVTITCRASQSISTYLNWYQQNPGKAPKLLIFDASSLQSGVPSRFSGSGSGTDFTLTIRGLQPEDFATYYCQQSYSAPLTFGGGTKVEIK")
3.29

Entry H4H12170P (antibody, human IgG4, V domains shown) VH: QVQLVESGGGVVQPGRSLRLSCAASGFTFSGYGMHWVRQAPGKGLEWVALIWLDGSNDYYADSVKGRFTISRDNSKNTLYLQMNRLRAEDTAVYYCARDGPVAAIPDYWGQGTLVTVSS VL: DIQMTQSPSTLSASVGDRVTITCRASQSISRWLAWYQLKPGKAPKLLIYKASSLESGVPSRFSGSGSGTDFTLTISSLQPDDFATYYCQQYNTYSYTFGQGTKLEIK has what log10(Kd)?
2.11

Entry H4H12166P8 (antibody, human IgG4, V domains shown, human IgG4 Fc with S108P hinge mutation) VH: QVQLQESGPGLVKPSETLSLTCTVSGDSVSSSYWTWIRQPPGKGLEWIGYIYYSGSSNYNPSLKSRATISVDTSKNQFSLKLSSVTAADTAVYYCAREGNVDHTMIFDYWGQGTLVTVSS VL: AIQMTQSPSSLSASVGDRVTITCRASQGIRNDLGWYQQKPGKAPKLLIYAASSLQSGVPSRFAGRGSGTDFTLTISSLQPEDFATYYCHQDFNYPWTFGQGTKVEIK has what log10(Kd)?
3.15
